# test.target: C-X-C chemokine receptor type 1 (Homo sapiens)
# Sequence (whole entry): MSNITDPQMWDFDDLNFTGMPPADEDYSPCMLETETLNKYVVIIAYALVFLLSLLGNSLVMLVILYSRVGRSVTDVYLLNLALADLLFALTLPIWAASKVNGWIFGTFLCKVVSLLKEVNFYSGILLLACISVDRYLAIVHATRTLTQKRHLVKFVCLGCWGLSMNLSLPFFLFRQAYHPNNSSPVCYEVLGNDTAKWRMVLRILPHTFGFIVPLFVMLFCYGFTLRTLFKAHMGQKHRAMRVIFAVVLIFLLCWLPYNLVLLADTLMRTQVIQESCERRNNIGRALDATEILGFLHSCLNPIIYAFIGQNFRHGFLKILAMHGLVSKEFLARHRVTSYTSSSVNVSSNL
# assay.text: Binding affinity to CXCR1
Activity calls are given as the source filed them. The rule behind the calls is not given here.
measurement.name: Activity

INSERT INTO measurements (compound, measurement_name, recorded_value) VALUES
  ('CCOC(=O)c1c(NCCN(CC)CC)n(-c2ccccc2)c(=S)n(-c2ccccc2)c1=O', 'Activity', 'inactive'),
  ('CCOC(=O)c1c(NCCNc2ccccc2)n(-c2ccccc2)c(=S)n(-c2ccccc2)c1=O', 'Activity', 'inactive'),
  ('CCOC(=O)c1c(NCCC2CCCN2C)n(-c2ccccc2)c(=S)n(-c2ccccc2)c1=O (stereo not given)', 'Activity', 'inactive'),
  ('CCOC(=O)c1c(NCCc2ccccn2)n(-c2ccccc2)c(=S)n(-c2ccccc2)c1=O', 'Activity', 'inactive');

As a next step, examine the compound that follows.
**Query** Query Activity on C-X-C chemokine receptor type 1 (Homo sapiens) for CCOC(=O)c1c(NCCOC)n(-c2ccccc2)c(=S)n(-c2ccccc2)c1=O
**Result** inactive

Where these numbers come from: ChEMBL document CHEMBL1136878
